testedSystem: UniProtKB Q9H7B4
protocolText: SMYD3 biochemical assay (SPA, 3H-SAM methylation of MEKK2 protein substrate)
assayConditions: read-out: SMYD3 Biochem IC50*
For each entry below, report its IC50 value.
One number for each entry, in nM.

Provide the reported IC50 of each entry below, same order.
1. CN[C@H]1CC[C@@H](S(=O)(=O)N2CC[C@@H](NC(=O)c3cc(C4CC4)on3)[C@@H](C)C2)CC1
2. O=C(N[C@H]1C[C@H]2CC[C@@H](C1)N2S(=O)(=O)NC1CCN[C@@H](Cc2ccccc2)C1)c1cc(C2CC2)on1 (stereo partly drawn)
3. CCN(CC)C1CCN(S(=O)(=O)N2CC[C@H](NC(=O)c3cc(C4CC4)on3)C[C@@H]2C)CC1

[14.6, 12.1, 9.46]

====

For each entry below, report its pIC50 value.
testedSystem: SMYD3 (Homo sapiens (Human))
protocolText: SMYD3 cell assay (Trimethyl-MEKK2 In-Cell Western in 293T/17 cells)
Format: cell-based
assayConditions: Table 2A; read-out: SMYD3 Cell IC50
Give bare numbers, as −log10 of the molar value.

Observe how each entry below is paired with its result.
INSERT INTO assay_data (structure, testedsystem, assayendpoint, experimentalvalue) VALUES
  ('C[C@H]1C[C@@H](NC(=O)c2cc(C3CC3)on2)CCN1S(=O)(=O)N1CC2CCC(C1)N2C', 'SMYD3 (Homo sapiens (Human))', 'pIC50', 7.31),
  ('CN(C)CCNCCS(=O)(=O)N1[C@@H]2CC[C@H]1C[C@@H](NC(=O)c1cc(C3CC3)on1)C2', 'SMYD3 (Homo sapiens (Human))', 'pIC50', 6.67),
  ('C[C@H]1CN(S(=O)(=O)CC2CCNCC2)CC[C@H]1NC(=O)c1cc(C2CC2)on1', 'SMYD3 (Homo sapiens (Human))', 'pIC50', 6.66),
  ('CN1C2CCC1CN(S(=O)(=O)N1[C@@H]3CC[C@H]1C[C@@H](NC(=O)c1cc(C4CC4)on1)C3)C2', 'SMYD3 (Homo sapiens (Human))', 'pIC50', 7.29);

Provide the reported pIC50 of each entry below, same order.
1. COCCN1CCC(CS(=O)(=O)N2CC[C@@H](NC(=O)c3cc(C4CC4)on3)C[C@H]2C)CC1
2. C[C@H]1C[C@@H](NC(=O)c2cc(C3CC3)on2)CCN1S(=O)(=O)CC1CCN(CCN2CCOCC2)CC1
3. C[C@@H]1C[C@H](NC(=O)c2cc(C3CC3)on2)CCN1S(=O)(=O)CC1CCN(C)CC1
4. NC1CC2(C1)CN(S(=O)(=O)N1[C@@H]3CC[C@H]1C[C@@H](NC(=O)c1cc(C4CC4)on1)C3)C2
5. C[C@H]1CN(S(=O)(=O)CC2CCN(C)CC2)CC[C@H]1NC(=O)c1cc(C2CC2)on1
6. CC[C@H]1CN(S(=O)(=O)N2CC[C@H](NC(=O)c3cc(C4CC4)on3)C[C@@H]2C)CCN1
7. O=C(N[C@H]1C[C@H]2CC[C@@H](C1)N2S(=O)(=O)N1C2CCC1CNC2)c1cc(C2CC2)on1

6.63
6.51
6.81
7.31
6.65
6.80
6.88

====

testedSystem: SMYD3 (Homo sapiens (Human))
protocolText: SMYD3 cell assay (Trimethyl-MEKK2 In-Cell Western in 293T/17 cells)
Format: cell-based
assayConditions: read-out: SMYD3 Cell IC50*
Method: Trimethyl-MEKK2-in-Cell Western Assay MEM/Glutamax medium, Optimem Reduced Serum medium, penicillin-streptomycin, 0.05% trypsin and 1×D-PBS were purchased from Life Technologies, Grand Island, N.Y., USA. […] Plasmids were prepared for delivery to cells by first mixing 1350 μL Opti-MEM with Fugene (81 μL) in a sterile Eppendorf and incubated for five minutes at room temperature (RT). […] Room temperature MEM+10% Tet system FBS was added and cells were mixed gently, and counted using the Vi-cell. […]
pIC50: −log10 of the molar value.
Outcome label depends on pIC50 relative to 7: at/above gives Y, below gives N.

Answered examples (3):
INSERT INTO measurements (compound, classassignment) VALUES
  ('C[C@H]1C[C@@H](NC(=O)c2cc(C3CC3)on2)CCN1S(=O)(=O)N1C[C@H]2CC[C@@H](C1)[C@@H]2N [compound 932]', 'N'),
  ('C[C@H]1C[C@@H](NC(=O)c2cc(C3CC3)on2)CCN1S(=O)(=O)CC[C@@H]1CCN(C)C1 [compound 795]', 'Y'),
  ('C[C@H]1C[C@@H](NC(=O)c2cc(C3CC3)on2)CCN1S(=O)(=O)[C@@H]1CCCNC1 [compound 910]', 'N');

Is it the case that C[C@@H](NC1CCN(S(=O)(=O)N2[C@@H]3CC[C@H]2C[C@@H](NC(=O)c2cc(C4CC4)on2)C3)CC1)c1ccccc1 [compound 923] has pIC50 reaching or exceeding 7?
N

====

For each entry below, report its pIC50 value.
testedSystem: SMYD3 (Homo sapiens (Human), UniProt Q9H7B4)
Sequence (Q9H7B4 whole entry): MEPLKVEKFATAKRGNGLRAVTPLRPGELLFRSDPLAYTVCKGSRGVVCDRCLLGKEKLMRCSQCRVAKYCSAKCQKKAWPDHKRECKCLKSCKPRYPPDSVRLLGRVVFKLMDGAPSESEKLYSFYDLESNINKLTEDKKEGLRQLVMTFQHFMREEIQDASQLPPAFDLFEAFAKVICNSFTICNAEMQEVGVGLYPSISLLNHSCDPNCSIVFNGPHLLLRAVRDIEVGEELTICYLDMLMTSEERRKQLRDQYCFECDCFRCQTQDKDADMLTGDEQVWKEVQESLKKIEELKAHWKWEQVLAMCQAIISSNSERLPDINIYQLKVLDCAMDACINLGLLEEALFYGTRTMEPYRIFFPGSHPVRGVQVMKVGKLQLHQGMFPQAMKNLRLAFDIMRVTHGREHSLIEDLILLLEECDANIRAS
protocolText: SMYD3 biochemical assay (SPA, 3H-SAM methylation of MEKK2 protein substrate)
assayConditions: Table 2A; read-out: SMYD3 Biochem IC50
Answers are plain numbers, as −log10 of the molar value.

Observe how each entry below is paired with its result.
INSERT INTO assay_data (structure, assayendpoint, experimentalvalue) VALUES
  ('O=C(N[C@H]1C[C@H]2CC[C@@H](C1)N2S(=O)(=O)N1CC2(CNC2)C1)c1cc(C2CC2)on1', 'pIC50', 8.01),
  ('O=C(N[C@H]1C[C@H]2CC[C@@H](C1)N2S(=O)(=O)C[C@@H]1CCCNC1)c1cc(C2CC2)on1', 'pIC50', 8.18),
  ('C[C@@H]1C[C@H](NC(=O)c2cc(C3CC3)on2)CCN1S(=O)(=O)CC1CCN(CCO)CC1', 'pIC50', 7.96);

# ---- query compound ----
Can you look up the measured pIC50 of "C[C@@H]1C[C@H](NC(=O)c2cc(C3CC3)on2)CCN1S(=O)(=O)CC1CCN(CCN2CCCCC2)CC1" for me?
8.02

====

testedSystem: SMYD3 (Homo sapiens (Human), UniProt Q9H7B4)
protocolText: SMYD3 biochemical assay (SPA, 3H-SAM methylation of MEKK2 protein substrate)
assayConditions: read-out: SMYD3 Biochem IC50*
For each entry below, report its IC50 value.
Answers are plain numbers, in nM.

INSERT INTO assay_data (compound, testedsystem, experimentalvalue) VALUES
  ('NC1[C@@H]2CC[C@H]1CN(S(=O)(=O)N1[C@@H]3CC[C@H]1CC(NC(=O)c1cc(C4CC4)on1)C3)C2 (stereo partly drawn)', 'SMYD3 (Homo sapiens (Human), UniProt Q9H7B4)', 13.3),
  ('O=C(N[C@H]1C[C@H]2CC[C@@H](C1)N2S(=O)(=O)N1CCC(NCCN2CCOCC2)CC1)c1cc(C2CC2)on1', 'SMYD3 (Homo sapiens (Human), UniProt Q9H7B4)', 52.3);

# ---- query compound ----
SMYD3 (Homo sapiens (Human), UniProt Q9H7B4) / IC50 / "C[C@@H](NC1CCN(S(=O)(=O)N2[C@@H]3CC[C@H]2C[C@@H](NC(=O)c2cc(C4CC4)on2)C3)CC1)c1ccccc1" : value?
28.6

====

testedSystem: SMYD3 (Homo sapiens (Human))
protocolText: SMYD3 cell assay (Trimethyl-MEKK2 In-Cell Western in 293T/17 cells)
Type: cell-based
assayConditions: read-out: SMYD3 Cell IC50*
Entries are grouped by IC50 into these classes: bottom bin = under 60 nM, middle bin = from 60 nM up to 200 nM, top bin = 200 nM and over

Answered examples (5):
INSERT INTO results (compound, classassignment) VALUES
  ('CC1CC(N)CCN1S(=O)(=O)N1CC[C@H](NC(=O)c2cc(C3CC3)on2)C[C@@H]1C (some centres unmarked) [compound 890]', 'top bin'),
  ('C[C@H]1CN(S(=O)(=O)N2[C@@H]3CC[C@H]2C[C@@H](NC(=O)c2cc(C4CC4)on2)C3)[C@@H](C)CN1 [compound 915]', 'top bin'),
  ('CC1CC(CS(=O)(=O)N2CC[C@H](NC(=O)c3cc(C4CC4)on3)C[C@@H]2C)CC(C)N1 (some centres unmarked) [compound 903]', 'top bin'),
  ('O=C(N[C@H]1C[C@H]2CC[C@@H](C1)N2S(=O)(=O)N1CC2CCC(C1)N2)c1cc(C2CC2)on1 [compound 817]', 'bottom bin'),
  ('C[C@@H](C1CCNCC1)S(=O)(=O)N1[C@@H]2CC[C@H]1C[C@@H](NC(=O)c1cc(C3CC3)on1)C2 [compound 882]', 'middle bin');

Textbook exercise: identify the category of the compound given here, O=C(N[C@H]1C[C@H]2CC[C@@H](C1)N2S(=O)(=O)N1CC2CCC(C1)N2CCCC(F)(F)F)c1cc(C2CC2)on1 [compound 914] , according to its measured value.
top bin

Lookup CCc1cc(C(=O)N[C@H]2C[C@H]3CC[C@@H](C2)N3S(=O)(=O)N2CCC(N)CC2)no1 [compound 799]
bottom bin

Lookup CN(CCCC(F)(F)F)C1CCN(S(=O)(=O)N2[C@@H]3CC[C@H]2C[C@@H](NC(=O)c2cc(C4CC4)on2)C3)CC1 [compound 838]
bottom bin

Lookup O=C(N[C@H]1C[C@H]2CC[C@@H](C1)N2S(=O)(=O)N1CC2CC1CN2)c1cc(C2CC2)on1 [compound 840]
bottom bin

Lookup CCc1cc(C(=O)N[C@H]2CCN(S(=O)(=O)c3ccc(C(C)(C)N)cc3)[C@@H](C)C2)no1 [compound 811]
bottom bin

Lookup CN1CC2CCC1CN2S(=O)(=O)N1[C@@H]2CC[C@H]1C[C@@H](NC(=O)c1cc(C3CC3)on1)C2 [compound 895]
middle bin

Lookup CC1CC(CS(=O)(=O)N2[C@@H]3CC[C@H]2C[C@@H](NC(=O)c2cc(C4CC4)on2)C3)CC(C)N1 (some centres unmarked) [compound 857]
middle bin
